biological target: T1, human CD117 on cells (SKMEL-3 cells, CD34+ HSC) (human, UniProt P10721 26-976); test: flow cytometry, CD34+ HSC, bivalent Fc
T1 construct: whole, on cells; also called CD117 on cell surfaces; CD117+ cells
T1 sequence (P10721 26-976): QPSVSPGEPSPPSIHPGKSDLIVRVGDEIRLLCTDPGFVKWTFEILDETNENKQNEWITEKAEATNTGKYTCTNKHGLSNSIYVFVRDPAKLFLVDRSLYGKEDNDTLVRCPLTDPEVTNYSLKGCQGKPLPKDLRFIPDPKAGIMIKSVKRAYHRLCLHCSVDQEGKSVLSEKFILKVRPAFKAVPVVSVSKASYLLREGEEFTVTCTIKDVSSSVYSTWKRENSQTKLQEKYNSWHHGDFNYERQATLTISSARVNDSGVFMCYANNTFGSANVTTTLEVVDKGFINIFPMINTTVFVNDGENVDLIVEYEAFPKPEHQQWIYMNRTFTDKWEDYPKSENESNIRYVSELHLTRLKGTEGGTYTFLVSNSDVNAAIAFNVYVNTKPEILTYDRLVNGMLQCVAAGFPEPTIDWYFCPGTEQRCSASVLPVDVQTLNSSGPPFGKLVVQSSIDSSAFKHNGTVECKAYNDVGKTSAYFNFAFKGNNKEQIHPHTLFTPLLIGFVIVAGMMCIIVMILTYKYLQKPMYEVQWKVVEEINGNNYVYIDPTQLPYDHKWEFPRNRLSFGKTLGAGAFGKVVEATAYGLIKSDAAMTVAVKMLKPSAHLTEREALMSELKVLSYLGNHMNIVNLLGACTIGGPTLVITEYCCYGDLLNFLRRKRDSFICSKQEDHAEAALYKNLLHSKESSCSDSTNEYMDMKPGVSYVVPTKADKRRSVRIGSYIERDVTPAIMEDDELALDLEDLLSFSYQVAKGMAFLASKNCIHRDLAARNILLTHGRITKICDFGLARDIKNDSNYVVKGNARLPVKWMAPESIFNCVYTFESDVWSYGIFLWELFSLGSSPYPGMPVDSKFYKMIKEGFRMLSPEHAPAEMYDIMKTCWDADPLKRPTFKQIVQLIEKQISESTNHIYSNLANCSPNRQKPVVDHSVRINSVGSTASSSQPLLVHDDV
For each entry below, report its pEC50 value.
pEC50 here is simply -log10 of the concentration when that concentration is written in mol/L.

Problem: Look at this binder and give its reported pEC50. P-0060 (Fc fusion, also called P60; bivalent form of P27; not shown: Fc fragment) EVQLVESGGGLVRAGGSLRLSCAASGRTTFSTYWLGWFRQAPGKNREFVAAISWSAGMAYYQDSKGRFTISRDNTKNTAYLQMNSLQPEDTAVYYCAAGRFHPIRVDTALYWAQGTQVTVSS
Result: 8.70

Problem: Look at this binder and give its reported pEC50. P-0072 (Fc fusion, also called P72; bivalent form of P38; not shown: Fc fragment) EVQLVESGGGLVQAGGSLRLSCAASGRTSGSYVMGWFRQAPGKEREFVAAISWSAGMTYYADSVKGRFTISRDNAKNTVYLQMNSLKPEDTAVYYCAADQRGVPAYYSDYALYDYWGQGTQVTVSS
Result: 8.70
